- procedure text: Inhibition of wild-type Bacillus subtilis DNA polymerase 3-mediated dGTP truncated DNA synthesis assessed as inhibition of incorporation of [3H]TMP
measured parameter: pKi
Numbers only, as −log10 of the molar value.

Solved entries (count: 5):
- smiles repr: "Cc1ccc(Nc2cc(O)nc(O)n2)cc1"
  pKi: 4.69
- smiles repr: "O=c1cc(NCc2ccc([N+](=O)[O-])cc2)[nH]c(=O)[nH]1"
  pKi: 5.28
- smiles repr: "Cc1cccc(Nc2cc(O)nc(O)n2)c1"
  pKi: 4.56
- smiles repr: "Oc1cc(NCCCc2ccccc2)nc(O)n1"
  pKi: 2.70
- smiles repr: "Oc1cc(Nc2ccc3c(c2)CCC3)nc(O)n1"
  pKi: 6.40

Look at each compound and report its pKi.
1. Oc1cc(NCc2ccccc2)nc(O)n1
2. Nc1ccc(CNc2cc(=O)[nH]c(=O)[nH]2)cc1
3. Oc1cc(NCCc2ccccc2)nc(O)n1
4. Cc1ccc(Nc2cc(O)nc(O)n2)cc1C

5.64
4.77
4.50
6.00

Look up pKi for this compound: CC(=O)Nc1ccc(CNc2cc(=O)[nH]c(=O)[nH]2)cc1
2.64

src = ChEMBL document CHEMBL3272188
